From: paper PMC9942557

# measurement-protocol: Maximum solubility in water
# Format: physicochemical
# assay-context: ultrapure water, 40 °C, thermodynamic from solid
readout-name: solubility at 20 min (µM)

>>> data_value("Nc1c2c([n+](CCCCCCCCCCCC[n+]3c4c(c(N)c5ccccc53)CCCCCC4)c3ccccc13)CCCCCC2")
360

====

# MIC values compiled below
# System: Pseudomonas aeruginosa NCTC 13437
# measurement-protocol: Broth microdilution MIC
# Format: cell-based
readout-name: MIC

>>> data_value("Nc1c2c([n+](CCCCCCCCCC[n+]3c4c(c(N)c5ccccc53)CCCCCC4)c3ccccc13)CCCCCC2")
">32 µg/mL"
>>> data_value("Nc1c2c([n+](CCCCCC[n+]3c4c(c(N)c5ccccc53)CCCCCC4)c3ccccc13)CCCCCC2")
">32 µg/mL"
>>> data_value("Nc1c2c([n+](CCCCCCCCCCCC[n+]3c4c(c(N)c5ccccc53)CCC4)c3ccccc13)CCC2")
">32 µg/mL"
>>> data_value("Cc1c(N)c2ccccc2[n+](CCCCCCCCCCCC[n+]2c(C)c(C)c(N)c3ccccc32)c1C")
"> 32 µg/mL"
>>> data_value("Nc1c2c([n+](CCCCCCCCCCCC[n+]3c4c(c(N)c5ccccc53)CCCC4)c3ccccc13)CCCC2")
"32 µg/mL"
>>> data_value("Nc1c2c([n+](CCCCCCCCCCCC[n+]3c4c(c(N)c5ccccc53)CCCCC4)c3ccccc13)CCCCC2")
"32 µg/mL"
>>> data_value("Nc1c2c([n+](CCCCCCCC[n+]3c4c(c(N)c5ccccc53)CCCCCC4)c3ccccc13)CCCCCC2")
"32 µg/mL"

====

# System: VR Enterococcus faecalis NCTC 12201
# measurement-protocol: Broth microdilution MIC
# Type: cell-based
# assay-context: VR Enterococcus faecalis NCTC 12201
readout-name: MIC (µg/mL)

>>> data_value("Nc1c2c([n+](CCCCCCCCCCCC[n+]3c4c(c(N)c5ccccc53)CCC4)c3ccccc13)CCC2 [Penta-bola]")
1
>>> data_value("Nc1c2c([n+](CCCCCCCCCCCC[n+]3c4c(c(N)c5ccccc53)CCCCC4)c3ccccc13)CCCCC2 [Hepta-bola]")
0.5
>>> data_value("Nc1c2c([n+](CCCCCCCCCCCC[n+]3c4c(c(N)c5ccccc53)CCCC4)c3ccccc13)CCCC2 [12-bis-THA Cl2]")
1
>>> data_value("Nc1c2c([n+](CCCCCCCCCC[n+]3c4c(c(N)c5ccccc53)CCCCCC4)c3ccccc13)CCCCCC2 [Octa-C10]")
1
>>> data_value("Nc1c2c([n+](CCCCCCCC[n+]3c4c(c(N)c5ccccc53)CCCCCC4)c3ccccc13)CCCCCC2 [Octa-C8]")
4
>>> data_value("Nc1c2c([n+](CCCCCC[n+]3c4c(c(N)c5ccccc53)CCCCCC4)c3ccccc13)CCCCCC2 [Octa-C6]")
16

====

# Test system: C. parapsilosis 3209
# measurement-protocol: Broth microdilution MIC
# Type: cell-based
readout-name: MIC (µg/mL)

>>> data_value("Nc1c2c([n+](CCCCCCCC[n+]3c4c(c(N)c5ccccc53)CCCCCC4)c3ccccc13)CCCCCC2")
4
>>> data_value("Nc1c2c([n+](CCCCCCCCCC[n+]3c4c(c(N)c5ccccc53)CCCCCC4)c3ccccc13)CCCCCC2")
2
>>> data_value("Nc1c2c([n+](CCCCCCCCCCCC[n+]3c4c(c(N)c5ccccc53)CCCCC4)c3ccccc13)CCCCC2")
1
>>> data_value("Nc1c2c([n+](CCCCCCCCCCCC[n+]3c4c(c(N)c5ccccc53)CCC4)c3ccccc13)CCC2")
1
>>> data_value("Nc1c2c([n+](CCCCCCCCCCCC[n+]3c4c(c(N)c5ccccc53)CCCC4)c3ccccc13)CCCC2")
1

====

# System: P. aeruginosa NCTC 13437
# measurement-protocol: Fixed-concentration (0.25× MIC bolalipid) synergy broth microdilution
# Assay type: cell-based, Pseudomonas aeruginosa
# assay-context: P. aeruginosa NCTC 13437; in the presence of 0.25× MIC Octa-C10 (Table S1)
readout-name: MIC of antibiotic

>>> data_value("C[C@H]1c2cccc(O)c2C(=O)C2=C(O)[C@]3(O)C(=O)C(C(N)=O)=C(O)[C@@H](N(C)C)[C@@H]3[C@@H](O)[C@@H]21 [Doxycyline]")
"> 256 µg/mL"
>>> data_value("C[C@@H](O)[C@H]1C(=O)N2C(C(=O)O)=C(S[C@@H]3CN[C@H](C(=O)N(C)C)C3)[C@H](C)[C@H]12 [Meropenem]")
"> 32 µg/mL"
>>> data_value("O=C(O)c1cn(C2CC2)c2cc(N3CCNCC3)c(F)cc2c1=O [Ciprofloxacin]")
"> 64 µg/mL"
>>> data_value("CC(C)(O/N=C(\\C(=O)N[C@@H]1C(=O)N2C(C(=O)[O-])=C(C[n+]3ccccc3)CS[C@H]12)c1csc(N)n1)C(=O)O [Ceftazidime]")
"> 128 µg/mL"
>>> data_value("CO[C@H]1/C=C/O[C@@]2(C)Oc3c(C)c(O)c4c(O)c(c(/C=N/N5CCN(C)CC5)c(O)c4c3C2=O)NC(=O)/C(C)=C\\C=C\\[C@H](C)[C@H](O)[C@@H](C)[C@@H](O)[C@@H](C)[C@H](OC(C)=O)[C@@H]1C [Rifampin]")
"8 µg/mL"
>>> data_value("CC1(C)S[C@@H]2[C@H](NC(=O)[C@H](N)c3ccccc3)C(=O)N2[C@H]1C(=O)O [Ampicillin]")
"> 512 µg/mL"

====

# measurement-protocol: Dynamic light scattering
# Assay type: physicochemical
# assay-context: 0.36 mM in water
readout-name: nanoparticle formation (DLS)

>>> data_value("Nc1c2c([n+](CCCCCCCCCCCC[n+]3c4c(c(N)c5ccccc53)CCC4)c3ccccc13)CCC2 [Penta-bola]")
"to some extent"
>>> data_value("Nc1c2c([n+](CCCCCCCCCCCC[n+]3c4c(c(N)c5ccccc53)CCCC4)c3ccccc13)CCCC2 [12-bis-THA Cl2]")
"to some extent"

====

# MIC values compiled below
# Test system: Acinetobacter baumannii AYE
# measurement-protocol: Broth microdilution MIC
# Format: cell-based
# assay-context: Acinetobacter baumannii AYE
readout-name: MIC (µg/mL)

>>> data_value("Nc1c2c([n+](CCCCCCCC[n+]3c4c(c(N)c5ccccc53)CCCCCC4)c3ccccc13)CCCCCC2 [Octa-C8]")
32
>>> data_value("Nc1c2c([n+](CCCCCCCCCC[n+]3c4c(c(N)c5ccccc53)CCCCCC4)c3ccccc13)CCCCCC2 [Octa-C10]")
16
>>> data_value("Nc1c2c([n+](CCCCCCCCCCCC[n+]3c4c(c(N)c5ccccc53)CCCCC4)c3ccccc13)CCCCC2 [Hepta-bola]")
16
>>> data_value("Nc1c2c([n+](CCCCCCCCCCCC[n+]3c4c(c(N)c5ccccc53)CCCC4)c3ccccc13)CCCC2 [12-bis-THA Cl2]")
16
>>> data_value("Nc1c2c([n+](CCCCCCCCCCCC[n+]3c4c(c(N)c5ccccc53)CCC4)c3ccccc13)CCC2 [Penta-bola]")
32

====

# MIC values compiled below
# Tested on: Acinetobacter baumannii ATCC 17978
# measurement-protocol: Broth microdilution MIC
# Type: cell-based
readout-name: MIC (µg/mL)

>>> data_value("Nc1c2c([n+](CCCCCCCCCCCC[n+]3c4c(c(N)c5ccccc53)CCCCC4)c3ccccc13)CCCCC2 [Hepta-bola]")
16
>>> data_value("Nc1c2c([n+](CCCCCCCC[n+]3c4c(c(N)c5ccccc53)CCCCCC4)c3ccccc13)CCCCCC2 [Octa-C8]")
32
>>> data_value("Nc1c2c([n+](CCCCCCCCCC[n+]3c4c(c(N)c5ccccc53)CCCCCC4)c3ccccc13)CCCCCC2 [Octa-C10]")
8
>>> data_value("Nc1c2c([n+](CCCCCCCCCCCC[n+]3c4c(c(N)c5ccccc53)CCC4)c3ccccc13)CCC2 [Penta-bola]")
16
>>> data_value("Nc1c2c([n+](CCCCCCCCCCCC[n+]3c4c(c(N)c5ccccc53)CCCC4)c3ccccc13)CCCC2 [12-bis-THA Cl2]")
16

====

# MIC values compiled below
# Test system: C. glabrata 8018
# measurement-protocol: Broth microdilution MIC
# Format: cell-based
# assay-context: C. glabrata 8018
readout-name: MIC (µg/mL)

>>> data_value("Nc1c2c([n+](CCCCCCCCCCCC[n+]3c4c(c(N)c5ccccc53)CCC4)c3ccccc13)CCC2")
0.25
>>> data_value("Nc1c2c([n+](CCCCCCCCCCCC[n+]3c4c(c(N)c5ccccc53)CCCCC4)c3ccccc13)CCCCC2")
0.25
>>> data_value("Nc1c2c([n+](CCCCCCCCCCCC[n+]3c4c(c(N)c5ccccc53)CCCC4)c3ccccc13)CCCC2")
0.25
>>> data_value("Nc1c2c([n+](CCCCCCCCCC[n+]3c4c(c(N)c5ccccc53)CCCCCC4)c3ccccc13)CCCCCC2")
0.5
>>> data_value("Nc1c2c([n+](CCCCCCCC[n+]3c4c(c(N)c5ccccc53)CCCCCC4)c3ccccc13)CCCCCC2")
2
